Catalogue of EC50 values
Target: MEK5 PB1 domain binding to MEKK2 (MAP3K2) mutant PB1, human
Assay: mutant MEKK2 PB1-MEK5 interaction blockers – biochemical, bead multiplex flow cytometry, dose response (AID 1895)
Details: Bead-based multiplex flow cytometry
The source made the active and inactive calls. No rule for the calls is given here.

INSERT INTO measurements (molecule, tested_target, reported_result) VALUES
  ('CCOC(=O)C1=C(c2ccccc2)NC(N)=NC1c1ccc(OCc2ccc(C(=O)OC)cc2)cc1 (configuration not stated)', 'MEK5 PB1 domain binding to MEKK2 (MAP3K2) mutant PB1, human', '2.38 µM');

Read the next record carefully.
Summary: "Cc1ccc(-c2csc(NC(=O)C[n+]3cc(-c4ccc(C)cc4)n4c3CCC4)n2)cc1" , MEK5 PB1 domain binding to MEKK2 (MAP3K2) mutant PB1, human, EC50 = > 30 µM (inactive)

###

Biological target: MEK5 PB1 domain binding to MEKK2 (MAP3K2) mutant PB1, human
Test: mutant MEKK2 PB1-MEK5 interaction blockers – biochemical, bead multiplex flow cytometry, dose response (AID 1895)
Conditions: Bead-based multiplex flow cytometry
Active and inactive are the calls of the source. How the calls were made is not given here.
Answer with one of the outcomes t = active, f = inactive

INSERT INTO results (compound, category) VALUES
  ('COc1ccc(CNC[C@@H](CCCCN(C)Cc2ccc(OC)cc2)N2C[C@H](c3ccccc3)N(CCc3ccc(Cl)c(Cl)c3)C(=O)C2=O)cc1', 'f'),
  ('Cc1ccccc1OCC(O)CNC1CCC(NCC(O)COc2ccccc2C)CC1 (stereo not given)', 'f'),
  ('CCCCCCCCCCCCCCCC[n+]1ccc(/C=N/O)cc1', 't'),
  ('CCN1CCN(CCNC(=O)c2ccc(/C=C3/Sc4ccccc4N(Cc4cccc(C)c4)C3=O)cc2)CC1', 't');

Consider the record given below.
Prompt: Test call for this compound, please: "Nc1cc2nc[nH]c2cc1N"
Response: f

###

Molecular target: MEK5 PB1 domain binding to MEKK2 (MAP3K2) mutant PB1, human
Assay: mutant MEKK2 PB1-MEK5 interaction blockers – biochemical, bead multiplex flow cytometry, dose response (AID 1895)
Details: Bead-based multiplex flow cytometry
Calls of active or inactive are those of the source. The rule behind the calls is not given here.
# output must be one of active, inactive

Worked examples, 5 compounds total:
INSERT INTO results (line_notation, category) VALUES
  ('CN(C)c1ccc(/C=C/C=C2/SC(=S)N(c3ccccc3)C2=O)cc1', 'inactive'),
  ('C#CCOCCOCCOCCNc1nc(N2CCN(C(=O)[C@H](Cc3ccc(O)cc3)n3cc([C@@H](N)CC(C)C)nn3)CC2)nc(N2CCN(C(=O)[C@H](Cc3ccc(O)cc3)n3cc([C@@H](N)CC(C)C)nn3)CC2)n1', 'active'),
  ('C#CCOCCOCCOCCNc1nc(N2CCN(C(=O)[C@H](Cc3ccc(O)cc3)n3cc([C@@H](N)CC(C)C)nn3)CC2)nc(N2CCN(C(=O)[C@H](Cc3cc4ccccc4[nH]3)n3cc([C@@H](N)CC(C)C)nn3)CC2)n1', 'inactive'),
  ('C#CCOCCOCCOCCNc1nc(N2CCN(C(=O)[C@H]([C@@H](C)CC)n3cc([C@@H](N)CC(C)C)nn3)CC2)nc(N2CCN(C(=O)[C@H](Cc3cc4ccccc4[nH]3)n3cc([C@@H](N)Cc4ccc(O)cc4)nn3)CC2)n1', 'inactive'),
  ('Cc1cc2cc(CNC(=O)NC3CCCCC3)ccc2[nH]1', 'inactive');

Prompt: Dear colleague, could you share the recorded outcome for "COc1ccc2nc(C)cc(N/N=C/c3cccc(OC)c3O)c2c1" when you have a moment?
Response: inactive

Prompt: I would be grateful if you could indicate the recorded call for "COc1ccc(Cn2c(SCc3ccccc3C)nc3cc(OC)c(OC)cc3c2=N)cc1" .
Response: inactive

Prompt: Please indicate how the test categorized "C/C(=N\NC(=O)c1cc(O)cc(O)c1)c1ccc(NC(=O)Cc2ccccc2)cc1" .
Response: inactive
